The reported measurements were obtained from ChEMBL document CHEMBL6153082.

Assay: Dissociation constant, pKa of the compound by potentiometric titration analysis
Assay type: physicochemical
Items are presented alongside their recorded pKa.
Write no unit; give the number alone.

>>> experimental_value("CCOc1ccccc1C(=O)N1CCN(Cc2ccccc2)C[C@@H]1C(=O)NC[C@@H]1CCCCO1")
7.4

Here is another compound to look at.
# input Item under review: CCOc1ccccc1C(=O)N1CCN(Cc2ccccc2)C[C@@H]1C(=O)NC[C@H]1CCCCO1 . Reported pKa?
# output 7.4

====

Assay: Kinetic aqueous solubility of compound at pH 7.4 at 5 to 300 uM
Format: physicochemical
Details: dose 5-300 µM, read-out: Kinetic_solubility
Result type: solubility kinetic (µM)
Write it as a number; the unit µM goes unstated.

>>> experimental_value("CCCc1cn(CC[C@H](C)Oc2cc([C@@H](C(=O)N3CCCC[C@H]3C(=O)OC)C3CCCCC3)cc(OC)c2OC)nn1")
65
>>> experimental_value("C=CCOC(=O)[C@@H]1CCCCN1C(=O)[C@H](c1cc(OC)c(OC)c(OC)c1)C1CCCCC1")
12
>>> experimental_value("CCCc1cn(CCCOc2cc([C@@H](C(=O)N3CCCC[C@H]3C(=O)OC)C3CCCCC3)cc(OC)c2OC)nn1")
65

# input Find the recorded solubility kinetic belonging to CCCOC(=O)[C@@H]1CCCCN1C(=O)[C@H](c1cc(OC)c(OC)c(OC)c1)C1CCCCC1 and report it.
# output 45

# input Reported solubility kinetic, compound COc1cc2cc(c1OC)O[C@@H](C)CCn1cc(nn1)CCCCOC(=O)[C@@H]1CCCCN1C(=O)[C@H]2C1CCCCC1 : ____
# output 100

# input I am curious: what solubility kinetic value has been reported for COc1cc2cc(OC)c1OCCCCOC(=O)[C@@H]1CCCCN1C(=O)[C@H]2C1CCCCC1 ?
# output 137

# input solubility kinetic for COc1cc2cc(c1OC)OC/C=C/COC(=O)[C@@H]1CCCCN1C(=O)[C@H]2C1CCCCC1 ?
# output 103

# input For the compound shown here, COc1cc2cc(c1OC)OCCCn1cc(nn1)CCCCOC(=O)[C@@H]1CCCCN1C(=O)[C@H]2C1CCCCC1 , give the reported solubility kinetic.
# output 100
